Entries and their Emax
Target: Growth hormone secretagogue receptor type 1 (Rattus norvegicus) (UniProt O08725)
Sequence (O08725 whole entry): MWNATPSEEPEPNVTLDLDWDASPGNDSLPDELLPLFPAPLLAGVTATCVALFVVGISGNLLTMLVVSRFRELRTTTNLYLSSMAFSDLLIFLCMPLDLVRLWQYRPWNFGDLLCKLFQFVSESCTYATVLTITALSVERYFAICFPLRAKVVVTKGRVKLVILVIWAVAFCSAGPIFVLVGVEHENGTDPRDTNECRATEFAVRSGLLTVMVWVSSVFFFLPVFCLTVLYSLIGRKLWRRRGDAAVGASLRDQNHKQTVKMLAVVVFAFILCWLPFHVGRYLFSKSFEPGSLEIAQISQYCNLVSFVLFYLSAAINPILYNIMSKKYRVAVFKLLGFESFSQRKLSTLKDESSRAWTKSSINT
Assay: Tested for GH-releasing property using classical rat pituitary cell assay
Format: functional, cell-based
Conditions: Pituitary gland cell
Please give the number followed by its unit.

# molecule, measured.property, result
measured = [
    ("CCNC(=O)[C@@H](Cc1ccccc1)N(C)C(=O)[C@@H](Cc1ccc2ccccc2c1)N(C)C(=O)/C=C/CC(C)(C)N", "Emax", "105%"),
    ("CNC(=O)[C@@H](Cc1ccccc1)N(C)C(=O)[C@@H](Cc1ccc(-c2ccccc2)cc1)N(C)C(=O)/C=C/CC(C)(C)N", "Emax", "120%"),
    ("CNC(=O)[C@@H](Cc1ccccc1)N(C)C(=O)[C@@H](Cc1ccc2ccccc2c1)N(C)C(=O)/C=C/CC(C)(C)N", "Emax", "110%"),
    ("C[C@H](O)CNC(=O)[C@@H](Cc1cccs1)N(C)C(=O)[C@@H](Cc1ccc2ccccc2c1)N(C)C(=O)/C=C/CC(C)(C)N", "Emax", "120%"),
    ("CNC(=O)[C@@H](Cc1cccs1)N(C)C(=O)[C@@H](Cc1ccc2ccccc2c1)N(C)C(=O)/C=C/CC(C)(C)N", "Emax", "110%"),
    ("CNC(=O)[C@@H](Cc1ccccc1)N(C)C(=O)[C@@H](COCc1ccccc1)N(C)C(=O)/C=C/CC(C)(C)N", "Emax", "125%"),
]

Problem: Given the molecule CN(C(=O)/C=C/CC(C)(C)N)[C@H](Cc1ccc2ccccc2c1)C(=O)N(C)[C@H](Cc1ccccc1)C(=O)NCC1CCCO1 (some centres not stated) , what is its reported Emax?
Result: 100%

====

Biological target: Growth hormone secretagogue receptor type 1 (Rattus norvegicus, UniProt O08725)
Sequence (O08725 whole entry): as above
Experiment: Tested for GH-releasing property using classical rat pituitary cell assay
measured.property: log10(EC50) (log10 of the value in nM)
Remember, log10 of EC50, in nM.

# compound, measured.property, measured.number
measured = [
    ("CNC(=O)[C@@H](Cc1cccs1)N(C)C(=O)[C@@H](Cc1ccc2ccccc2c1)N(C)C(=O)/C=C/CC(C)(C)N", "log10(EC50)", 0.30),
    ("CNC(=O)[C@@H](Cc1ccc(I)cc1)N(C)C(=O)[C@@H](Cc1ccc2ccccc2c1)N(C)C(=O)/C=C/CC(C)(C)N", "log10(EC50)", 1.30),
]

Problem: Given the compound CN(C(=O)/C=C/CC(C)(C)N)[C@H](Cc1ccc2ccccc2c1)C(=O)N(C)[C@H](Cc1ccccc1)C(=O)NCC1CC1 , what is its reported log10(EC50)?
Result: 0.26

Problem: Given the compound CNC(=O)[C@@H](Cc1ccccc1)N(C)C(=O)[C@@H](Cc1csc2ccccc12)N(C)C(=O)/C=C/CC(C)(C)N , what is its reported log10(EC50)?
Result: 1.54

Problem: Given the compound C[C@@H](O)CNC(=O)[C@@H](Cc1ccccc1)N(C)C(=O)[C@@H](Cc1ccc2ccccc2c1)N(C)C(=O)/C=C/CC(C)(C)N (stereo in doubt; 7o) , what is its reported log10(EC50)?
Result: 0.95

Problem: Given the compound CNC(=O)[C@@H](Cc1ccccc1)N(C)C(=O)[C@@H](COCc1ccccc1)N(C)C(=O)/C=C/CC(C)(C)N , what is its reported log10(EC50)?
Result: 0.70
